// reported protein stability index per item
B1: INTS4 (parent)
chain: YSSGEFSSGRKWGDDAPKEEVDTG

variants of: B1; assay: protein stability index of a GFP-peptide fusion (GPS, HEK-293T) (PSI 1-6); higher = more stable; conditions: c terminus: a fixed tail appended;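 further: lentivirally expressed fusions sorted by FACS into six bins by GFP to DsRed ratio, PSI derived from sequencing read proportions per bin multiplied by bin number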
Please state the value as a number alone, without comment.

protein stability index measured on S2G = 1.95

protein stability index measured on A16C = 2.71

protein stability index measured on D15N = 2.34

protein stability index measured on F6C = 5.11

protein stability index measured on S7E = 4.21
